test system: A431 cells/TMD8 cells; test: Proliferation inhibitory activity against cell lines expressing BTK and EGFR, comparison of selectivity; type: cell-based, human; conditions: cells cultured three days with compound, CELLTITER GLO
measured endpoint: A431 cell proliferation inhibition ratio/TMD8 cell proliferation inhibition ratio

{"smiles structure": "C=CC(=O)N1CC[C@@H](n2nc(C(=O)Nc3nc4cc(C#N)ccc4o3)c3c(N)ncnc32)C1", "reported": ">3510.0"}
{"smiles structure": "C/C=C/C(=O)N1CCC[C@@H](n2nc(C(=O)Nc3nc4ccccc4o3)c3c(N)ncnc32)C1", "reported": ">1400.6"}
{"smiles structure": "CC(C)N(C)C/C=C/C(=O)N1CC[C@@H](n2nc(C(=O)Nc3nc4cc(Cl)ccc4o3)c3c(N)ncnc32)C1", "reported": ">18691.6"}
{"smiles structure": "CN(C)C/C=C/C(=O)N1CC[C@@H](n2nc(C(=O)Nc3nc4cc(Cl)ccc4o3)c3c(N)ncnc32)C1", "reported": ">11123.5"}
{"smiles structure": "CCN(C)C/C=C/C(=O)N1CC[C@@H](n2cc(C(=O)Nc3nc4cc(Cl)ccc4o3)c3c(N)ncnc32)C1", "reported": ">2767.8"}
{"smiles structure": "Nc1ncnc2c1c(C(=O)Nc1nc3cc(Cl)ccc3o1)cn2[C@@H]1CCN(C(=O)/C=C/CN2CCCC2)C1", "reported": ">1535.4"}
{"smiles structure": "CCN(C)C/C=C/C(=O)N1CCC[C@@H](n2nc(C(=O)Nc3nc4cc(Cl)ccc4o3)c3c(N)ncnc32)C1", "reported": ">16313.2"}
{"smiles structure": "Nc1ncnc2c1c(C(=O)Nc1nc3cc(Cl)ccc3o1)nn2[C@@H]1CCCN(C(=O)/C=C/CN2CCCCC2)C1", "reported": ">19120.5"}
{"smiles structure": "Nc1ncnc2c1c(C(=O)Nc1nc3cc(Cl)ccc3o1)nn2[C@@H]1CCCN(C(=O)/C=C/CN2CCCC2)C1", "reported": ">17825.3"}
{"smiles structure": "CN(C)C/C=C/C(=O)N1CC[C@@H](n2cc(C(=O)Nc3nc4cc(Cl)ccc4o3)c3c(N)ncnc32)C1", "reported": ">3260.5"}
{"smiles structure": "C=CC(=O)N1CCC[C@@H](n2nc(C(=O)Nc3nc4cc(C#N)ccc4o3)c3c(N)ncnc32)C1", "reported": 2786.0}
{"smiles structure": "Nc1ncnc2c1c(C(=O)Nc1nc3cc(Cl)ccc3o1)cn2[C@@H]1CCN(C(=O)/C=C/CN2CCCCC2)C1", "reported": ">2675.9"}
{"smiles structure": "C=CC(=O)N1CC[C@@H](n2nc(C(=O)Nc3nc4cc(CCOC)ccc4o3)c3c(N)ncnc32)C1", "reported": ">3159.6"}
{"smiles structure": "CCN(CC)C/C=C/C(=O)N1CCC[C@@H](n2nc(C(=O)Nc3nc4cc(Cl)ccc4o3)c3c(N)ncnc32)C1", "reported": ">12345.7"}
{"smiles structure": "CCN(CC)C/C=C/C(=O)N1CC[C@@H](n2nc(C(=O)Nc3nc4cc(Cl)ccc4o3)c3c(N)ncnc32)C1", "reported": ">22471.9"}
{"smiles structure": "CC(C)N(C)C/C=C/C(=O)N1CC[C@@H](n2cc(C(=O)Nc3nc4cc(Cl)ccc4o3)c3c(N)ncnc32)C1", "reported": ">3617.9"}
{"smiles structure": "C=CC(=O)N1CCC[C@@H](n2nc(C(=O)Nc3nc4cc(Br)ccc4o3)c3c(N)ncnc32)C1", "reported": ">1033.6"}
{"smiles structure": "C=CC(=O)N1CCC[C@@H](n2nc(C(=O)Nc3nc4cc(C)c(C)cc4o3)c3c(N)ncnc32)C1", "reported": ">10680"}
{"smiles structure": "CCN(CC)C/C=C/C(=O)N1CC[C@@H](n2cc(C(=O)Nc3nc4cc(Cl)ccc4o3)c3c(N)ncnc32)C1", "reported": ">2044.6"}
{"smiles structure": "CC(C)N(C)C/C=C/C(=O)N1CCC[C@@H](n2nc(C(=O)Nc3nc4cc(Cl)ccc4o3)c3c(N)ncnc32)C1", "reported": ">15625.0"}
